# Test system: OVCAR-5 ovarian
# test.summary: NCI-60 one-dose screen, 48 h (100 = growth as untreated, 0 = no growth, -100 = all killed)
# condition.parameters: 10 µM unless noted
Compounds without any hit were thinned out: in the full panel of roughly 83,000, 20% have a hit. Calls of active or inactive are those of the source. Rule for the calls: active = growth percent below 10; inactive = the rest.
reported.property: growth

O=CN1N=C(c2ccc3c(c2)OCO3)CC1c1cccc(Nc2ccnc3cc(C(F)(F)F)ccc23)c1 (stereo not drawn) ... 97.7% (inactive)
COc1ccc2[nH]c(=O)c(/C=C/C(=O)c3ccccc3OC)cc2c1 ... 12.1% (inactive)
CSc1nc(-c2cccs2)c2c(N)[nH]nc2n1 ... 106% (inactive)
COc1cc(-c2cn(-c3ccc(Cl)c(Cl)c3)c(=O)[nH]2)cc(OC)c1OC ... 87.6% (inactive)
NC[C@@H]1CCN(c2cc3c(cc2F)c(=O)n(N)c(=O)n3Cc2ccc(-c3ccccc3)cc2)C1 ... 111% (inactive)

I have 8 molecules here; please give me growth for each one.
1. CCCCCCC/C=C/[C@H]1O[C@]23C(=O)C[C@@]4(C[C@@H](OC5OC(CO)C(O)C(O)C5O)C[C@@H]4[C@H]2C=C1C)OC3=O (stereo partly drawn)
2. C=C1C(=O)O[C@H]2[C@H]1CCC(/C=N/c1ncc(Br)cc1N)=C\CC[C@@]1(C)O[C@@H]21
3. C=C(C)[C@@H]1CC[C@]2(C(=O)OCCOCCOCC[P+](c3ccccc3)(c3ccccc3)c3ccccc3)CC[C@]3(C)[C@H](CC[C@@H]4[C@@]5(C)CC[C@H](OC(=O)C(Cl)Cl)C(C)(C)[C@@H]5CC[C@]43C)[C@@H]12
4. COc1cc2nc3c(=O)n(CCN(C)C)cnn3c(=O)c2cc1OC
5. Nc1c(C(=O)Nc2cccc3ccccc23)sc2nc3c(cc12)COCC3
6. COc1ccccc1C(=O)/C=C/c1cc2cccc(OC)c2[nH]c1=O
7. COc1cc(C2=NN(C=O)C(c3cccc(Nc4ccnc5cc(C(F)(F)F)ccc45)c3)C2)cc(OC)c1OC (stereo not drawn)
8. Cc1nc2sc(C(=O)Nc3ccccc3)c(N)c2cc1C(C)O (stereo not drawn)

Result block:
1. 27.7% (inactive)
2. 49.4% (inactive)
3. 39.3% (inactive)
4. 99% (inactive)
5. 87.9% (inactive)
6. 13.1% (inactive)
7. 102% (inactive)
8. 51.3% (inactive)
